Taken from PubChem BioAssay.

PROCEDURE_TEXT: drug combination growth inhibition, ovarian cancer – cell-based, oncology-focused library, rucaparib conditional, profiling panel (AID 1508598)
MEASUREMENT_CONDITIONS: patient-derived ovarian cancer cells, CellTiter-Glo viability, 144 h; at 0.00488 µM; OCI-P5x cells; with rucaparib 20 µM; 100% = cells with rucaparib alone
The source made the active and inactive calls.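 How the source made its calls: active means normalized viability below 100% at a tested concentration; inactive means the rest.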
Respond only with the outcome that fits, drawn from active, inactive

Would you please look over these solved cases?
N#Cc1ccc(C(c2ccc(C#N)cc2)n2cncn2)cc1 | inactive
CC[C@@]1(O)C(=O)OCc2c1cc1n(c2=O)Cc2cc3c(CN(C)C)c(O)ccc3nc2-1 | active
NC(=O)NO | inactive

Short answer needed: outcome of this test for Cc1cc2c(C(C)C)c(O)c(O)c(C=O)c2c(O)c1-c1c(C)cc2c(C(C)C)c(O)c(O)c(C=O)c2c1O ?
active

Returns: the outcome recorded for CN(Cc1cnc2nc(N)nc(N)c2n1)c1ccc(C(=O)N[C@@H](CCC(=O)O)C(=O)O)cc1 in this assay.
inactive

Would you mind telling me which call this test gave CCC(C)n1ncn(-c2ccc(N3CCN(c4ccc(OC[C@H]5CO[C@](Cn6cncn6)(c6ccc(Cl)cc6Cl)O5)cc4)CC3)cc2)c1=O (stereo partly specified) ?
active

Hi, do you know how COc1ccccc1OCC(O)CN1CCN(CC(=O)Nc2c(C)cccc2C)CC1 (stereo unspecified) came out in this test?
active

Tell me the recorded outcome of this test for Cn1nnc2c(C(N)=O)ncn2c1=O .
inactive

Please state the recorded outcome for this compound: Cc1nc(-c2ccc(OCC(C)C)c(C#N)c2)sc1C(=O)O
inactive

Assay outcome for O=c1c(O)c(-c2ccc(O)c(O)c2)oc2cc(O)cc(O)c12 : what was it?
inactive

Tell me the recorded outcome of this test for O=NN(CCCl)C(=O)NC1CCCCC1 .
active
